The measured values listed here are drawn from the supplement of paper PMC10307832.

Test system: NCI-H2023
Experiment Summary: relative viability (nuclei count vs DMSO), 5 days (fraction); higher = more cells survive
Condition Set: first compound 0.005 µM
Quantity Measured: relative viability
Answer with the value's number alone.

compound="CC1(C)CCC(c2ccc(Cl)cc2)=C(CN2CCN(c3ccc(C(=O)NS(=O)(=O)c4ccc(N[C@H](CCN5CCOCC5)CSc5ccccc5)c(S(=O)(=O)C(F)(F)F)c4)cc3)CC2)C1 [Navitoclax] + CC(=O)Nc1cccc(-n2c(=O)n(C3CC3)c(=O)c3c(Nc4ccc(I)cc4F)n(C)c(=O)c(C)c32)c1 [Trametinib] (partner 0.02 µM)" assay_value=0.556
compound="CC1(C)CCC(c2ccc(Cl)cc2)=C(CN2CCN(c3ccc(C(=O)NS(=O)(=O)c4ccc(N[C@H](CCN5CCOCC5)CSc5ccccc5)c(S(=O)(=O)C(F)(F)F)c4)cc3)CC2)C1 [Navitoclax] + COc1cccc2cc(-c3nc([C@H]4CC[C@H](C(=O)O)CC4)n4ncnc(N)c34)[nH]c12 [OSI-027] (partner 0.5 µM)" assay_value=0.405
compound="CC1(C)CCC(c2ccc(Cl)cc2)=C(CN2CCN(c3ccc(C(=O)NS(=O)(=O)c4ccc(N[C@H](CCN5CCOCC5)CSc5ccccc5)c(S(=O)(=O)C(F)(F)F)c4)cc3)CC2)C1 [Navitoclax] + CCNC(=O)c1noc(-c2cc(C(C)C)c(O)cc2O)c1-c1ccc(CN2CCOCC2)cc1 [Luminespib] (partner 0.01 µM)" assay_value=0.782

Input line: Bench note: what relative viability did CC1(C)CCC(c2ccc(Cl)cc2)=C(CN2CCN(c3ccc(C(=O)NS(=O)(=O)c4ccc(N[C@H](CCN5CCOCC5)CSc5ccccc5)c(S(=O)(=O)C(F)(F)F)c4)cc3)CC2)C1 [Navitoclax] + CS(=O)(=O)N1CCN(Cc2cc3nc(-c4cccc5[nH]ncc45)nc(N4CCOCC4)c3s2)CC1 [Pictilisib] (partner 1 µM) show?
Output line: 0.282
